METHOD: NCI Yeast Anticancer Drug Screen. Data for the rad50 strain (AID 155);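 further: 0% = growth of vehicle-only cultures of the same strain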
RUN CONDITIONS: S. cerevisiae rad50 strain growth inhibition; at 50.0 µM; active compounds read high
This is part of a sample that, as a whole, favours compounds with a hit. Of some 79,000 tested, about 15% had one in any assay. Activity calls are given as the source filed them. No stated cut-off is given here; in the data, active means growth inhibition above about 70%; inactive means the rest.
OBSERVED PROPERTY: growth inhibition

- COMPOUND: "CCOC(=O)c1c(C)[nH]c(=S)c(C#N)c1-c1ccco1"
  growth inhibition: "17.7% (inactive)"
- COMPOUND: "Nc1nc(C2CCCC2)c(Br)c(=O)[nH]1"
  growth inhibition: "-24.2% (inactive)"
- COMPOUND: "CC#Cc1c(C#CC)c(OC)c2c(c1OC)C(=O)c1ccccc1C2=O"
  growth inhibition: "-20.9% (inactive)"

// for each compound below, give its growth inhibition
1. CC[n+]1ccc(-c2ccccc2)o1
2. CN(C=O)c1ccc2c(c1)C(=O)c1ccccc1-2
3. COC(=O)C1CC2CC1C1C2SC(F)(F)C1(F)F (stereo unspecified)
4. CNOCc1ccc(C(=O)NC(C)C)cc1
5. CC1(C)CCC[C@@]2(C)C1C[C@H](O)[C@@]1(C)O[C@@](C)([C@H](O)CO)CCC21 (stereo partly specified)
6. CN(C)CC(C)(C)C(=O)c1ccc(F)cc1
7. CC(=O)OC[C@@H](OC(C)=O)[C@@H](OC(C)=O)[C@H]1OC[C@@H]2C[C@H]([C@H]1OC(C)=O)N(Cc1ccccc1)O2
8. CCN(CC)CCNC(=O)c1c(C)cc(C)cc1C

-- reply
1: 3.6% (inactive); 2: 11.7% (inactive); 3: 0.2% (inactive); 4: 12.2% (inactive); 5: 28.6% (inactive); 6: 5.35% (inactive); 7: -18.9% (inactive); 8: -5.1% (inactive)

----------
So I've got a bunch of compounds here, and I need their growth inhibition values.
METHOD: NCI Yeast Anticancer Drug Screen. Data for the sgs1 mgt1 strain (AID 161);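 further: 0% = growth of cultures given vehicle only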
RUN CONDITIONS: S. cerevisiae sgs1 mgt1 strain, at 50.0 µM, active compounds read high
Compounds without any hit were thinned out: in the full panel of roughly 79,000, 15% have a hit.
Answers are plain numbers, in %.

Look over these answered cases.
- COMPOUND: "Cc1ccc(CC(=S)N2CCOCC2)cc1"
  growth inhibition (%): 10.8
- COMPOUND: "O=[N+]([O-])c1ccccc1C=NC12CC3CC(CC(C3)C1)C2"
  growth inhibition (%): 9.95
- COMPOUND: "COc1cc2c(cc1OCc1ccccc1)C(c1cc(OC)c(OC)c(OC)c1)=C1C(=O)OCC1C2 (stereo not drawn)"
  growth inhibition (%): -16.4
- COMPOUND: "Brc1ccc(Br)c2nc(/C=C/c3ccccc3)ccc12"
  growth inhibition (%): -7

// for each compound below, give its growth inhibition
1. OCc1ccc(F)cc1
2. COc1ccc(-c2coc3cc(O)cc(O)c3c2=O)cc1
3. NNC(=O)CC(=O)Nc1ccccc1F
4. CC(O)C1OC(n2cnc3c(=O)[nH]cnc32)C(O)C1O (stereo not drawn)

-- reply
[-7.5, 59.4, -6.4, -0.65]

----------
METHOD: NCI Yeast Anticancer Drug Screen. Data for the cln2 rad14 strain (AID 165);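 further: 0% = growth equal to vehicle treated cultures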
RUN CONDITIONS: S. cerevisiae cln2 rad14 strain, at 50.0 µM, active compounds read high
This is part of a sample that, as a whole, favours compounds with a hit. Of some 79,000 tested, about 15% had one in any assay.
OBSERVED PROPERTY: growth inhibition (%)
Numbers only, in %.

Look over these answered cases.
- MOLECULE: "CCOC(=O)C(C#N)(Cc1ccccc1CC(C#N)(NC(C)=O)C(=O)OCC)NC(C)=O (stereo unspecified)"
  growth inhibition / %: -0.3
- MOLECULE: "CCOC(=O)CNC1C(NC(C)=O)C(OC)OC2COC(c3ccccc3)OC21 (stereo unspecified)"
  growth inhibition / %: -12.3
- MOLECULE: "O=S(=O)(O)c1cc2cc(S(=O)(=O)O)c(O)cc2cc1O"
  growth inhibition / %: 3.55
- MOLECULE: "C/C=C/c1ccc(O)c(OC)c1"
  growth inhibition / %: -5.95
- MOLECULE: "c1ccc(Cc2ccc3ccccc3c2)cc1"
  growth inhibition / %: -26.6

Next up:
-- ask Tell me its growth inhibition given O=c1cc(-c2ccccc2)[nH]c2ncccc12 as the entry.
-- reply -9.4
